Consider the following molecules and their measured pIC50 readings.
molecular target: human D2R/β-arrestin (Homo sapiens (Human), UniProt P14416); experiment: cell-based; details: β-arrestin Antagonist, CHO-K1 cell line expressing human D2R/β-arrestin; quinpirole used as agonist
Sequence (P14416 whole entry): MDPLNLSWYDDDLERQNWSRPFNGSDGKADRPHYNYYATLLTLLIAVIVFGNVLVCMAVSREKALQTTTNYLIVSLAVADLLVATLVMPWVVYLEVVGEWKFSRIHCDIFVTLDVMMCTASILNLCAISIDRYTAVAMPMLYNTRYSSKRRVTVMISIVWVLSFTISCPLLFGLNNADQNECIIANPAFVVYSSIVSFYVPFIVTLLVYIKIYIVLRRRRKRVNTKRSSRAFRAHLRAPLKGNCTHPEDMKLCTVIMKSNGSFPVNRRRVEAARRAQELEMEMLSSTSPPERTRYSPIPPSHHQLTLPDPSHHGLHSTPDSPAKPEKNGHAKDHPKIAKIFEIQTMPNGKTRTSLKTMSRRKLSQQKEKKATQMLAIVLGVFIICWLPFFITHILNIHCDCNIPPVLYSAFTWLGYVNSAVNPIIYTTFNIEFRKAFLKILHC
pIC50: −log10 of the molar value.
METRIC: pIC50

- MOLECULE: "O=C(NC(c1ccc2c(c1)OC(F)(F)O2)c1ccccn1)C1CCN(CCOc2ccccc2F)CC1 (single isomer, unassigned) [Compound 94b]"
  EXPERIMENTAL RESULT: "< 4.52"
- MOLECULE: "FC(F)(F)CN(CC1CCN(CCOc2ccccc2)CC1)C(c1ccc(Cl)cc1)c1ccccn1 (stereo not shown) [Compound 125]"
  EXPERIMENTAL RESULT: "6.00 to 7.00"
- MOLECULE: "Clc1ccc(C(NCC2CCN(CCOc3ccccc3)CC2)c2ccccn2)cc1 (single isomer, unassigned) [Compound 114b]"
  EXPERIMENTAL RESULT: "6.00 to 7.00"
- MOLECULE: "O=C(NC(c1ccc(Cl)cc1)c1ccccn1)C1CCN(CCOc2cccc(Cl)c2)CC1 (stereo not shown) [Compound 1]"
  EXPERIMENTAL RESULT: "6.00 to 7.00"
- MOLECULE: "O=C(NC(c1ccc(Cl)cc1)c1ccc(F)cn1)C1CCN(CCOc2ccccc2F)CC1 (single isomer, unassigned) [Compound 92a]"
  EXPERIMENTAL RESULT: "6.00 to 7.00"
- MOLECULE: "COc1ccccc1OCCN1CCC(C(=O)NC(c2ccc(Cl)cc2)c2ccccn2)CC1 (stereo not shown)"
  EXPERIMENTAL RESULT: "> 7.00"
- MOLECULE: "CC1(C(=O)NC(c2ccc(F)cc2)c2ccccn2)CCN(CCOc2ccccc2)CC1 (stereo not shown) [Compound 69]"
  EXPERIMENTAL RESULT: "6.00 to 7.00"

* * *

biological target: human D2R/β-arrestin (Homo sapiens (Human), UniProt P14416); experiment: cell-based; details: β-arrestin Antagonist, CHO-K1 cell line expressing human D2R/β-arrestin; quinpirole used as agonist
METRIC: IC50

- COMPOUND: "Oc1c(CN2CCN(c3ccccn3)CC2)cc(Cl)c2cccnc12 [MLS1547, reference compound]"
  EXPERIMENTAL RESULT: "1 to 10 µM"
- COMPOUND: "CN(CC1CCN(CCOc2ccccc2F)CC1)C(c1ccc(Cl)cc1)c1ccccn1 (single isomer, unassigned) [Compound 72b]"
  EXPERIMENTAL RESULT: "< 0.1 µM"
- COMPOUND: "O=C(NC(c1ccc(Cl)cc1)c1ccccn1)C1CCN(CCOc2ccncc2)CC1 (stereo not shown) [Compound 142]"
  EXPERIMENTAL RESULT: "10 to 30 µM"
- COMPOUND: "O=C(NC(c1ccc(Cl)cc1)c1ccccn1)C1CCN(CCn2ccccc2=O)CC1 (stereo not shown) [Compound 9]"
  EXPERIMENTAL RESULT: "1 to 10 µM"
- COMPOUND: "CN(CC1CCN(CCOc2ccccc2)CC1)C(c1ccc(F)cc1)c1ccccn1 (single isomer, unassigned) [Compound 74b]"
  EXPERIMENTAL RESULT: "0.1 to 1 µM"
- COMPOUND: "O=C(NC(c1ccc(Cl)cc1)c1ccccn1)C1CCN(CCOc2ccc(F)cc2F)CC1 (single isomer, unassigned) [Compound 115b]"
  EXPERIMENTAL RESULT: "0.1 to 1 µM"
- COMPOUND: "O=C(NC(c1ccc(F)cc1)c1ccccc1F)C1CCN(CCOc2ccccc2Cl)CC1 (stereo not shown) [Compound 85]"
  EXPERIMENTAL RESULT: "< 0.1 µM"

* * *

experiment: Solubility in PBS; assay type: physicochemical; conditions: aqueous buffer
Consider the following molecules and their measured solubility readings.
METRIC: solubility (µM)

- MOLECULE: "O=C(NC(c1ccc(F)cc1)c1ccccn1)C1CCN(CCOc2ccccc2)CC1 (centres unmarked) [Compound 25]"
  METRIC: "solubility"
  MODIFIER SIGN: "="
  EXPERIMENTAL RESULT: 452
- MOLECULE: "O=C(NC(c1ccc(Cl)cc1)c1ccccn1)C1CCN(CCOc2ccccc2F)CC1 (centres unmarked) [Compound 3]"
  METRIC: "solubility"
  MODIFIER SIGN: "="
  EXPERIMENTAL RESULT: 43
- MOLECULE: "O=C(NC(c1cccc(Cl)c1)c1ccccn1)C1CCN(CCOc2ccccc2)CC1 (centres unmarked) [Compound 23]"
  METRIC: "solubility"
  MODIFIER SIGN: "="
  EXPERIMENTAL RESULT: 225
- MOLECULE: "O=C(NC(c1ccc(Cl)cc1)c1ccccn1)C1CCN(CCOc2ccccc2Cl)CC1 (centres unmarked) [Compound 66]"
  METRIC: "solubility"
  MODIFIER SIGN: "="
  EXPERIMENTAL RESULT: 10.5
- MOLECULE: "O=C(NC(c1ccc(Cl)cc1)c1ccccn1)C1CCN(CCOc2ccccc2)CC1 (centres unmarked) [Compound 63]"
  METRIC: "solubility"
  MODIFIER SIGN: "="
  EXPERIMENTAL RESULT: 476
- MOLECULE: "O=C(NC(c1ccc(F)cc1)c1ccccn1)C1CCN(CCOc2ccccc2C(F)(F)F)CC1 (centres unmarked) [Compound 52]"
  METRIC: "solubility"
  MODIFIER SIGN: "="
  EXPERIMENTAL RESULT: 27
- MOLECULE: "O=C(NC(c1ccc(Cl)cc1)c1ccccn1)C1CCN(CCOc2ccc(F)cc2F)CC1 (centres unmarked) [Compound 115]"
  METRIC: "solubility"
  MODIFIER SIGN: "="
  EXPERIMENTAL RESULT: 220
- MOLECULE: "CN(CC1CCN(CCOc2ccccc2)CC1)C(c1ccc(Cl)cc1)c1ccccn1 (single isomer, unassigned) [Compound 79b]"
  METRIC: "solubility"
  MODIFIER SIGN: "="
  EXPERIMENTAL RESULT: 8
- MOLECULE: "O=C(NC(c1ccncc1)c1ccc(Cl)cc1)C1CCN(CCOc2ccccc2)CC1 (centres unmarked) [Compound 112]"
  METRIC: "solubility"
  MODIFIER SIGN: "="
  EXPERIMENTAL RESULT: 19
- MOLECULE: "O=C(NC(c1ccc(Cl)cc1)c1ccccn1)C1CCN(CCOc2cc(F)ccc2F)CC1 (centres unmarked) [Compound 14]"
  METRIC: "solubility"
  MODIFIER SIGN: "="
  EXPERIMENTAL RESULT: 36.1
- MOLECULE: "COc1ccccc1OCCN1CCC(C(=O)NC(c2ccc(Cl)cc2)c2ccccn2)CC1 (centres unmarked) [Compound 109]"
  METRIC: "solubility"
  MODIFIER SIGN: ">"
  EXPERIMENTAL RESULT: 500

* * *

target: human D2R/β-arrestin (Homo sapiens (Human), UniProt P14416); assay: Gi/cAMP agonist assay (Lance Ultra cAMP, Forskolin); type: cell-based; conditions: CHO-K1 cell line expressing human D2R/β-arrestin
METRIC: EC50

- MOLECULE: "O=C(NC(c1ccc(F)cc1)c1ccc(Cl)cc1)C1CCN(CCOc2ccccc2)CC1 (stereo not shown) [Compound 42]"
  EXPERIMENTAL RESULT: "100 to 1000 nM"
- MOLECULE: "COc1cccc(C(c2ccccn2)N(C)CC2CCN(CCOc3ccccc3F)CC2)c1 (stereo not shown) [Compound 77]"
  EXPERIMENTAL RESULT: "< 100 nM"
- MOLECULE: "Clc1ccc(C(NCC2CCN(CCOc3ccccc3)CC2)c2ccccn2)cc1 (stereo not shown) [Compound 114]"
  EXPERIMENTAL RESULT: "> 30000 nM"
- MOLECULE: "COc1cccc(C(NC(=O)C2CCN(CCOc3ccccc3Cl)CC2)c2ccccn2)c1 (stereo not shown)"
  EXPERIMENTAL RESULT: "> 30000 nM"
- MOLECULE: "O=C(NC(c1ccc(Cl)cc1)c1ccccn1)C1CCN(CCOc2ccccn2)CC1 (stereo not shown)"
  EXPERIMENTAL RESULT: "> 30000 nM"
- MOLECULE: "CC1(C(=O)NC(c2ccc(F)cc2)c2ccccn2)CCN(CCOc2ccccc2)CC1 (single isomer, unassigned) [Compound 69b]"
  EXPERIMENTAL RESULT: "< 100 nM"
- MOLECULE: "COc1ccc(C(NC(=O)C2CCN(CCOc3ccccc3)CC2)c2ccc(Cl)cc2)cc1 (stereo not shown)"
  EXPERIMENTAL RESULT: "> 30000 nM"
- MOLECULE: "O=C(NC(c1ccccn1)c1ccccc1Cl)C1CCN(CCOc2ccccc2)CC1 (stereo not shown)"
  EXPERIMENTAL RESULT: "1000 to 10000 nM"
- MOLECULE: "CN(CC1CCN(CCOc2ccccc2F)CC1)C(c1ccc(F)cc1)c1ccccn1 (stereo not shown)"
  EXPERIMENTAL RESULT: "< 100 nM"
- MOLECULE: "Clc1ccc(C(c2ccccn2)N2CC3CCN(CCOc4ccccc4)CC3C2)cc1 (stereo not shown)"
  EXPERIMENTAL RESULT: "< 100 nM"
- MOLECULE: "CC(C)N(CC1CCN(CCOc2ccccc2)CC1)C(c1ccc(Cl)cc1)c1ccccn1 (single isomer, unassigned) [Compound 103a]"
  EXPERIMENTAL RESULT: "100 to 1000 nM"
- MOLECULE: "O=C(NC(c1ccc(Cl)cc1)c1ccccn1)C1CCN(CCOc2ccccc2)CC1 (single isomer, unassigned) [Compound 63b]"
  EXPERIMENTAL RESULT: "> 30000 nM"
- MOLECULE: "O=C(NC(c1cccc(OC(F)(F)F)c1)c1ccccn1)C1CCN(CCOc2ccccc2)CC1 (single isomer, unassigned) [Compound 118b]"
  EXPERIMENTAL RESULT: "1000 to 10000 nM"
- MOLECULE: "CC(C1CCN(CCOc2ccccc2)CC1)N(C)C(c1ccc(Cl)cc1)c1ccccn1 (stereo not shown) [Compound 97]"
  EXPERIMENTAL RESULT: "> 30000 nM"
- MOLECULE: "O=C(NC(c1ccc(Cl)cc1)c1ccccn1)C1CCN(CCn2ccc(=O)cc2)CC1 (single isomer, unassigned) [Compound 11a]"
  EXPERIMENTAL RESULT: "> 30000 nM"
- MOLECULE: "COc1cccc(C(NC(=O)C2(C)CCN(CCOc3ccccc3)CC2)c2ccccn2)c1 (stereo not shown)"
  EXPERIMENTAL RESULT: "100 to 1000 nM"
- MOLECULE: "O=C(NC(c1ccccc1F)c1ccccc1F)C1CCN(CCOc2ccccc2)CC1"
  EXPERIMENTAL RESULT: "1000 to 10000 nM"
- MOLECULE: "O=C(NC(c1ccc(C(F)(F)F)cc1)c1ccccn1)C1CCN(CCOc2ccccc2)CC1 (stereo not shown)"
  EXPERIMENTAL RESULT: "100 to 1000 nM"
- MOLECULE: "O=C(NC(c1ccccn1)C1CCCCC1)C1CCN(CCOc2ccccc2)CC1 (stereo not shown)"
  EXPERIMENTAL RESULT: "> 30000 nM"
- MOLECULE: "CC(C1CCN(CCOc2ccccc2)CC1)N(C)C(c1ccc(Cl)cc1)c1ccccn1 (single isomer, unassigned) [Compound 97a]"
  EXPERIMENTAL RESULT: "100 to 1000 nM"
- MOLECULE: "O=C(NC(c1ccc(F)cc1)c1ccccn1)C1CCN(CCOc2ccccc2F)CC1 (single isomer, unassigned) [Compound 54a]"
  EXPERIMENTAL RESULT: "> 30000 nM"
- MOLECULE: "CC(C)C(NC(=O)C1CCN(CCOc2ccccc2)CC1)c1ccccn1 (stereo not shown)"
  EXPERIMENTAL RESULT: "1000 to 10000 nM"
